Tested on: DU-145
Test: Cytotoxicity against human DU145 cells after 2 days by automatic ELISA reader system
Format: functional, cell-based
Conditions: DU-145, 48 h
Structures can show the parent of a compound that is named as a salt.
property label: log10(IC50) (log10 of the value in µM)
Each number you see is log10 of IC50, and the unit inside the log is µM.

q: In one line, give reported log10(IC50) of the entry Oc1ccc(-c2cc(-c3ccccc3)cc(-c3cccnc3)n2)cc1 .
a: 0.92

q: In one line, give reported log10(IC50) of the entry Oc1cccc(-c2cc(-c3ccccc3)nc(-c3cccs3)c2)c1 .
a: 1.29

q: In one line, give reported log10(IC50) of the entry Oc1ccc(-c2cc(-c3ccccc3)cc(-c3ccccc3)n2)cc1 .
a: 0.48

q: In one line, give reported log10(IC50) of the entry Oc1cccc(-c2cc(-c3ccccc3)cc(-c3cccc(O)c3)n2)c1 .
a: 1.40

q: In one line, give reported log10(IC50) of the entry Oc1cccc(-c2cc(-c3ccccc3)nc(-c3ccccc3)c2)c1 .
a: 1.25

q: In one line, give reported log10(IC50) of the entry Oc1ccc(-c2cc(-c3ccccc3)nc(-c3ccncc3)c2)cc1 .
a: 0.34

q: In one line, give reported log10(IC50) of the entry Oc1cccc(-c2cc(-c3ccccc3)nc(-c3ccsc3)c2)c1 .
a: 1.07

q: In one line, give reported log10(IC50) of the entry Oc1cccc(-c2cc(-c3ccccc3)nc(-c3cccnc3)c2)c1 .
a: 1.28

q: In one line, give reported log10(IC50) of the entry Oc1cccc(-c2cc(-c3ccccc3)cc(-c3ccco3)n2)c1 .
a: 1.16

q: In one line, give reported log10(IC50) of the entry Oc1cccc(-c2cc(-c3ccccc3)nc(-c3ccccn3)c2)c1 .
a: 1.19

q: In one line, give reported log10(IC50) of the entry Oc1cccc(-c2cc(-c3ccccc3)nc(-c3ccco3)c2)c1 .
a: 1.54

q: In one line, give reported log10(IC50) of the entry Oc1cccc(-c2cc(-c3ccccc3)cc(-c3ccncc3)n2)c1 .
a: 1.28

q: In one line, give reported log10(IC50) of the entry CC[C@@]1(O)C(=O)OCc2c1cc1n(c2=O)Cc2cc3ccccc3nc2-1 [CAMPTOTHECIN] .
a: -0.40

q: In one line, give reported log10(IC50) of the entry Oc1ccccc1-c1cc(-c2ccccc2)cc(-c2ccccc2O)n1 .
a: 0.90

q: In one line, give reported log10(IC50) of the entry Oc1cccc(-c2cc(-c3ccccc3)cc(-c3ccsc3)n2)c1 .
a: 1.07

q: In one line, give reported log10(IC50) of the entry Oc1ccc(-c2cc(-c3ccccc3)cc(-c3ccc(O)cc3)n2)cc1 .
a: 1.34

q: In one line, give reported log10(IC50) of the entry Oc1ccccc1-c1cc(-c2ccccc2)nc(-c2ccco2)c1 .
a: 0.69

q: In one line, give reported log10(IC50) of the entry Oc1ccc(-c2cc(-c3ccccc3)cc(-c3ccco3)n2)cc1 .
a: 0.51

q: In one line, give reported log10(IC50) of the entry Oc1ccc(-c2cc(-c3ccccc3)cc(-c3ccsc3)n2)cc1 .
a: 0.93

q: In one line, give reported log10(IC50) of the entry COc1cc([C@@H]2c3cc4c(cc3[C@@H](O[C@@H]3O[C@@H]5CO[C@@H](C)O[C@H]5[C@H](O)[C@H]3O)[C@H]3COC(=O)[C@H]23)OCO4)cc(OC)c1O [ETOPOSIDE] .
a: -0.30

q: In one line, give reported log10(IC50) of the entry COc1cccc2c1C(=O)c1c(O)c3c(c(O)c1C2=O)C[C@@](O)(C(=O)CO)C[C@@H]3O[C@H]1C[C@H](N)[C@H](O)[C@H](C)O1 [DOXORUBICIN HYDROCHLORIDE] .
a: 0.00

q: In one line, give reported log10(IC50) of the entry Oc1cccc(-c2cc(-c3ccccc3)cc(-c3cccs3)n2)c1 .
a: 1.28

q: In one line, give reported log10(IC50) of the entry Oc1cccc(-c2cc(-c3ccccc3)cc(-c3ccccc3)n2)c1 .
a: 1.25

q: In one line, give reported log10(IC50) of the entry Oc1ccc(-c2cc(-c3ccccc3)nc(-c3ccco3)c2)cc1 .
a: 0.93

q: In one line, give reported log10(IC50) of the entry Oc1cccc(-c2cc(-c3ccccc3)nc(-c3ccncc3)c2)c1 .
a: 1.26

q: In one line, give reported log10(IC50) of the entry Oc1ccc(-c2cc(-c3ccccc3)cc(-c3cccs3)n2)cc1 .
a: 0.57

* * *

Target: DNA topoisomerase 1 (Homo sapiens) (UniProt P11387)
Sequence (P11387 whole entry): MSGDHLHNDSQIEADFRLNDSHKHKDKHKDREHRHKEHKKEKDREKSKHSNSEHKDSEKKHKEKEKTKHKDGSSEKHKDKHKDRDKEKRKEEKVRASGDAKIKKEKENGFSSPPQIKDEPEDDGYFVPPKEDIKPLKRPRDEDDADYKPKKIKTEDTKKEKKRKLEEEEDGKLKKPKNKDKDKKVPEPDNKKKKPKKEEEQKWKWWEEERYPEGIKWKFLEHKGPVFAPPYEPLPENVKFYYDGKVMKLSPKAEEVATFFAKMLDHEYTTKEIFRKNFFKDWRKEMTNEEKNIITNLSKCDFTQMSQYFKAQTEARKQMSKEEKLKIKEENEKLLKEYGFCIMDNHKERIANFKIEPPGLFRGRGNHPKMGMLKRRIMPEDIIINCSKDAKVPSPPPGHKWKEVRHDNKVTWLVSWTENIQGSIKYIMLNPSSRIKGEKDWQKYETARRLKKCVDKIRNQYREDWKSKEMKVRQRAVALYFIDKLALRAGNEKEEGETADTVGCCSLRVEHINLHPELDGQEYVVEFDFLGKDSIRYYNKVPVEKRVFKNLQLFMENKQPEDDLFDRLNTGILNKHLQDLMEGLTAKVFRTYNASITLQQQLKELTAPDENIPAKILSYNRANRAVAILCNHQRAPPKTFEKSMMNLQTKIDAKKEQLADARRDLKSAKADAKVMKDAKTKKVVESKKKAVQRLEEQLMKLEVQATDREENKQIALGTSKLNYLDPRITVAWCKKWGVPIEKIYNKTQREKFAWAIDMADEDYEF
Experiment: Inhibition of human recombinant TOP1-mediated relaxation of supercoiled Escherichia coli pBR322 DNA at 20 uM after 30 mins by transillumination
I'd be grateful if you could share measured inhibition for these entries.
Quick reminder: number only, in %, skip the unit.

q: Give DNA topoisomerase 1 (Homo sapiens) (UniProt P11387) inhibition for the following compound: Oc1cccc(-c2cc(-c3ccccc3)nc(-c3ccsc3)c2)c1
a: 3.2

q: Give DNA topoisomerase 1 (Homo sapiens) (UniProt P11387) inhibition for the following compound: Oc1cccc(-c2cc(-c3ccccc3)cc(-c3cccc(O)c3)n2)c1
a: 10.5

q: Give DNA topoisomerase 1 (Homo sapiens) (UniProt P11387) inhibition for the following compound: Oc1cccc(-c2cc(-c3ccccc3)nc(-c3cccs3)c2)c1
a: 2

q: Give DNA topoisomerase 1 (Homo sapiens) (UniProt P11387) inhibition for the following compound: Oc1cccc(-c2cc(-c3ccccc3)nc(-c3ccccn3)c2)c1
a: 2.8

q: Give DNA topoisomerase 1 (Homo sapiens) (UniProt P11387) inhibition for the following compound: Oc1cccc(-c2cc(-c3ccccc3)cc(-c3ccncc3)n2)c1
a: 25.4

q: Give DNA topoisomerase 1 (Homo sapiens) (UniProt P11387) inhibition for the following compound: Oc1cccc(-c2cc(-c3ccccc3)cc(-c3ccco3)n2)c1
a: 0

q: Give DNA topoisomerase 1 (Homo sapiens) (UniProt P11387) inhibition for the following compound: Oc1cccc(-c2cc(-c3ccccc3)nc(-c3ccco3)c2)c1
a: 3.5

q: Give DNA topoisomerase 1 (Homo sapiens) (UniProt P11387) inhibition for the following compound: Oc1cccc(-c2cc(-c3ccccc3)cc(-c3ccsc3)n2)c1
a: 6.8

q: Give DNA topoisomerase 1 (Homo sapiens) (UniProt P11387) inhibition for the following compound: Oc1cccc(-c2cc(-c3ccccc3)nc(-c3cccnc3)c2)c1
a: 1.5

q: Give DNA topoisomerase 1 (Homo sapiens) (UniProt P11387) inhibition for the following compound: Oc1cccc(-c2cc(-c3ccccc3)cc(-c3ccccc3)n2)c1
a: 0

q: Give DNA topoisomerase 1 (Homo sapiens) (UniProt P11387) inhibition for the following compound: Oc1cccc(-c2cc(-c3ccccc3)cc(-c3cccs3)n2)c1
a: 5.8

* * *

Test system: HCT-15
Assay: Cytotoxicity against human HCT15 cells after 2 days by automatic ELISA reader system
Format: functional, cell-based
Settings: HCT-15, 48 h
property label: IC50 (µM)
Quick reminder: number only, in µM, skip the unit.

q: In one line, give reported IC50 of the entry Oc1cccc(-c2cc(-c3ccccc3)cc(-c3ccncc3)n2)c1 .
a: 27.4

q: In one line, give reported IC50 of the entry Oc1ccc(-c2cc(-c3ccccc3)nc(-c3ccncc3)c2)cc1 .
a: 11.7

q: In one line, give reported IC50 of the entry Oc1ccc(-c2cc(-c3ccccc3)nc(-c3ccco3)c2)cc1 .
a: 5.1

* * *

I'd be grateful if you could share measured inhibition for these entries.
Biological target: DNA topoisomerase 2-alpha (Homo sapiens)
Experiment: Inhibition of human recombinant TOP2A-mediated relaxation of supercoiled Escherichia coli pBR322 DNA at 100 uM after 30 mins by transillumination
Quick reminder: number only, in %, skip the unit.

q: In one line, give reported inhibition of the entry Oc1ccccc1-c1cc(-c2ccccc2)cc(-c2ccccc2O)n1 .
a: 42.7

q: In one line, give reported inhibition of the entry Oc1cccc(-c2cc(-c3ccccc3)nc(-c3ccncc3)c2)c1 .
a: 42.8

q: In one line, give reported inhibition of the entry Oc1ccc(-c2cc(-c3ccccc3)cc(-c3cccs3)n2)cc1 .
a: 35.4

q: In one line, give reported inhibition of the entry Oc1cccc(-c2cc(-c3ccccc3)cc(-c3ccncc3)n2)c1 .
a: 3.1

q: In one line, give reported inhibition of the entry Oc1cccc(-c2cc(-c3ccccc3)cc(-c3ccccc3)n2)c1 .
a: 48.4

q: In one line, give reported inhibition of the entry Oc1ccccc1-c1cc(-c2ccccc2)nc(-c2ccco2)c1 .
a: 31.2

q: In one line, give reported inhibition of the entry Oc1cccc(-c2cc(-c3ccccc3)cc(-c3cccc(O)c3)n2)c1 .
a: 86.5

q: In one line, give reported inhibition of the entry Oc1cccc(-c2cc(-c3ccccc3)cc(-c3ccco3)n2)c1 .
a: 51.6

q: In one line, give reported inhibition of the entry Oc1ccc(-c2cc(-c3ccccc3)nc(-c3ccco3)c2)cc1 .
a: 30.2

q: In one line, give reported inhibition of the entry Oc1cccc(-c2cc(-c3ccccc3)nc(-c3ccccn3)c2)c1 .
a: 48.1

q: In one line, give reported inhibition of the entry Oc1ccc(-c2cc(-c3ccccc3)cc(-c3ccccc3)n2)cc1 .
a: 27.6

q: In one line, give reported inhibition of the entry Oc1cccc(-c2cc(-c3ccccc3)cc(-c3cccs3)n2)c1 .
a: 53.8
